Target: FAD-linked sulfhydryl oxidase ALR (Homo sapiens)
Assay: ALR-catalysed DTT oxidation blockers – biochemical, H2O2 detection, HRP-luminol luminescence, single point, primary screen (AID 485317)
Details: purified ALR, stronger effect = higher value, concentration not given here
Out of some 290,000 compounds screened, about 11,000 (3.8%) were called active. The entries come from a sample that favours actives as a whole.
// reported inhibition per item
Just the number please, in %, no unit attached.

The measured inhibition that "COCCNC(=S)N(CCc1c(C)[nH]c2ccc(C)cc12)Cc1cccnc1" showed for FAD-linked sulfhydryl oxidase ALR (Homo sapiens) is 90.7

The measured inhibition that CCOC(=O)C1Nc2ccc(C(F)(F)F)cc2C2C=CCC12 (stereo unspecified) showed for FAD-linked sulfhydryl oxidase ALR (Homo sapiens) is -11.3

The measured inhibition that COc1cccc(CNC(=O)CN2C(=O)NC(Cc3ccccc3)(c3ccccc3)C2=O)c1 (stereo unspecified) showed for FAD-linked sulfhydryl oxidase ALR (Homo sapiens) is -2.85

The measured inhibition that Cc1ccn(CCC(=O)N2c3ccccc3CC2C)n1 (stereo unspecified) showed for FAD-linked sulfhydryl oxidase ALR (Homo sapiens) is -7.69

The measured inhibition that "COc1ccc(S(=O)(=O)N(C)C[C@H]2Oc3ccc(NS(=O)(=O)c4cccs4)cc3CC(=O)N([C@H](C)CO)C[C@H]2C)cc1" showed for FAD-linked sulfhydryl oxidase ALR (Homo sapiens) is -0.0995

We next turn to a different molecule, shown below.
The measured inhibition that "O=C(COC(=O)CCOc1ccccc1)Nc1cc(S(=O)(=O)N2CCCCC2)ccc1Cl" showed for FAD-linked sulfhydryl oxidase ALR (Homo sapiens) is 4.02

----------
Target: FAD-linked sulfhydryl oxidase ALR (Homo sapiens) (UniProt P55789)
Sequence (P55789 whole entry, looked up): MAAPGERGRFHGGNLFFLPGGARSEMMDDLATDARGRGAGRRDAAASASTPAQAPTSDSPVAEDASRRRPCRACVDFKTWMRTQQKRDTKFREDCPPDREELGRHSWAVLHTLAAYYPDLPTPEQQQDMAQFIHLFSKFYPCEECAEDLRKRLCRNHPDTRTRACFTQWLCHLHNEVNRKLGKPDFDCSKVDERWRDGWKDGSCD
Assay: ALR-catalysed DTT oxidation blockers – biochemical, H2O2 detection, HRP-luminol luminescence, single point, primary screen (AID 485317)
Conditions: purified ALR, stronger effect = higher value, concentration not given here
Hit rate of the full screen: of about 290,000 compounds, about 11,000 (3.8%) were called active. The full list was thinned out, with actives kept by preference.
ASSAY READOUT: inhibition (%)
Just the number please, in %, no unit attached.

The measured inhibition that "CN1CCN(C(=O)/C(=C\c2cccs2)NC(=O)c2cccs2)CC1" showed for FAD-linked sulfhydryl oxidase ALR (Homo sapiens) (UniProt P55789) is 9.55

The measured inhibition that "COC(=O)C1CCN(C(=O)COC(=O)c2cc(S(=O)(=O)N3CCOCC3)ccc2C)CC1" showed for FAD-linked sulfhydryl oxidase ALR (Homo sapiens) (UniProt P55789) is -15.3

The measured inhibition that "Cc1cc(-c2n[nH]c(=S)n2-c2ccc(C)c(C)c2)no1" showed for FAD-linked sulfhydryl oxidase ALR (Homo sapiens) (UniProt P55789) is 96

We next turn to a different molecule, shown below.
The measured inhibition that "Cc1ccc(NC(=O)CSc2nc(=O)n(CCN(C)C)c3c2CCCC3)c(C)c1" showed for FAD-linked sulfhydryl oxidase ALR (Homo sapiens) (UniProt P55789) is 5.62

----------
Target: FAD-linked sulfhydryl oxidase ALR (Homo sapiens) (UniProt P55789)
Assay: ALR-catalysed DTT oxidation blockers – biochemical, H2O2 detection, HRP-luminol luminescence, single point, primary screen (AID 485317)
Conditions: purified ALR, stronger effect = higher value, concentration not given here
Among all 290,000 compounds or so, about 11,000 (3.8%) were called active. This excerpt belongs to a sample that is enriched for actives.
// reported inhibition per item
Just the number please, in %, no unit attached.

Looking up "N=c1c2c3c(sc2ncn1N)CCCC3" , I found its inhibition recorded as -10.4

Looking up "COc1cccc(CC(=O)OCC(=O)NCc2ccc3c(c2)OCO3)c1" , I found its inhibition recorded as -0.907

Looking up CCC1(c2ccccc2)NC(=O)N(CC(=O)c2ccc3c(c2)OCO3)C1=O (stereo not given) , I found its inhibition recorded as 0.023

Looking up COc1ccc(C(=O)C(C)OC(=O)c2cccc(S(=O)(=O)Nc3c(C)n(C)n(-c4ccccc4)c3=O)c2)cc1 (stereo not given) , I found its inhibition recorded as -0.831

Looking up "Cc1cccc(NC(=O)c2ccc(S(=O)(=O)N(C)c3ccccc3)cc2)n1" , I found its inhibition recorded as -13.4

Looking up "COc1cccc(NC(=O)Cn2c3ccccc3c3nc4n(c(=O)c32)CCS4)c1" , I found its inhibition recorded as 85.8

Looking up "O=C(Nc1ccccn1)C1CCN(S(=O)(=O)c2ccc3c(c2)OCCO3)CC1" , I found its inhibition recorded as 1.39

Looking up "CN(c1ccccc1)S(=O)(=O)c1cc(C(=O)Nc2nc3ccccc3[nH]2)ccc1Cl" , I found its inhibition recorded as 94.8

Looking up "COc1cccc(NC(=O)CN2CCN(CC(=O)Nc3ccccc3Cl)CC2)c1" , I found its inhibition recorded as -2.36

Looking up CC1CC(=S)Nc2ccccc2N1Cc1ccccc1 (stereo not given) , I found its inhibition recorded as 99

Looking up CCOC(=O)C1=C(COC(=O)[C@H](C)NS(=O)(=O)c2ccccc2F)NC(=O)NC1C (stereo not given in full) , I found its inhibition recorded as -1.62
